measurement-label: melting point (°C)

A. COc1cc(C(=O)N2CCNC(C#N)C2)c(Cl)cc1Nc1nccc(-c2cc(C#N)c3c(c2)C(C)(C)CN3)n1 (centres unmarked) [Compound 121]
B. Cc1ccc(-c2ncc[nH]2)cc1Nc1nccc(-c2cc(C#N)c3c(c2)[C@@](C)(CO)CN3)n1.Cl [Compound 191]
C. Cc1c(Nc2nccc(-c3cc(C#N)c4c(c3)[C@@](C)(CO)CN4)n2)cc(C#N)cc1C(=O)N1CCN(C)CC1 [Compound 203]
// TODO: order the 3 molecules above by melting point, descending Ranked list of labels, please, in the requested order.
C, A, B
(C: 294 °C, A: 193 °C, B: 122 °C)

Where do the numbers come from? From patent US11180487B2.
